Exercise: for every item that follows, state its recorded protein stability index.
B1: CASP6 (parent)
chain: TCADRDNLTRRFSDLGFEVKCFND

# Variants of: B1
# assay-procedure: protein stability index of a GFP-peptide fusion (GPS, HEK-293T) (PSI 1-6); higher = more stable;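 also: lentivirally expressed fusions sorted by FACS into six bins by GFP to DsRed ratio, PSI derived from sequencing read proportions per bin multiplied by bin number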
# measurement-conditions: c terminus: a fixed tail appended
Give bare numbers.

Illustrative cases are given below, each with its answer.
In [3]: df
Out[3]:
   variant_key  recorded_value
0         R11G            3.36
1          D6L            3.06
2         D24V            1.23
3          A3T            3.63
4          A3H            2.98
5         F12E             4.7

For each of the variants below, state protein stability index.
1. E18Q
2. N23V
3. E18G
4. R11W
5. F12Y
6. R11N
7. D6N

[3.1, 2.81, 2.87, 1.62, 3.45, 3.76, 2.29]
